Can you tell me IC50 for the items I'm about to list?
- Target system: R155K mutant of the HCV NS3/4A 1b protease enzyme (Hepatitis C virus genotype 1b, UniProt P26663, R1181K)
- Construct: 10× stocks of NS3/4A protease enzyme from Bioenza (Mountain View, Calif.); purchased Bioenza (Mountain View, Calif.)
- Experimental details: HCV Protease FRET Assay (IC50_APP), R155K mutant
- Assay type: biochemical
- Applied conditions: apparent IC50, R155K mutant; read-out: IC50_APP, HCV R155K

Query :: Returns the measured IC50 for the input molecule. Input: C=C[C@@H]1C[C@]1(NC(=O)[C@@H]1C[C@@H](Oc2nccc3cc(OC)ccc23)CN1C(=O)[C@H](CCC(=O)/C=C/c1ccccc1)NC(=O)OC(C)(C)C)C(=O)NS(=O)(=O)C1CC1
Result :: 1000 to 10000 nM

Query :: Returns the measured IC50 for the input molecule. Input: C=C[C@@H]1C[C@]1(NC(=O)[C@@H]1C[C@@H](Oc2nccc3ccc(Br)cc23)CN1C(=O)[C@H](CCC(=O)C=C(C)C)NC(=O)OC(C)(C)C)C(=O)NS(=O)(=O)C1CC1
Result :: 100 to 1000 nM

Query :: Returns the measured IC50 for the input molecule. Input: C=CC(=O)N(C)C[C@@H]1NC(=O)OCCC/C=C/c2ccc3ccnc(c3c2)O[C@@H]2C[C@@H](C(=O)N[C@]3(C(=O)NS(=O)(=O)C4CC4)C[C@H]3C=C)N(C2)C1=O
Result :: 1000 to 10000 nM

Query :: Returns the measured IC50 for the input molecule. Input: C=C[C@@H]1C[C@]1(NC(=O)[C@@H]1C[C@@H](Oc2nccc3cc(OC)ccc23)CN1C(=O)[C@H](CCC(=O)C#Cc1ccccc1)NC(=O)OC(C)(C)C)C(=O)NS(=O)(=O)C1CC1
Result :: < 10 nM

Query :: Returns the measured IC50 for the input molecule. Input: C=CC(=O)N[C@H](Cc1ccccc1)C(=O)N1C[C@H](Oc2nccc3cc(OC)ccc23)C[C@H]1C(=O)N[C@]1(C(=O)NS(=O)(=O)C2CC2)C[C@H]1C=C
Result :: 10 to 100 nM

Query :: Returns the measured IC50 for the input molecule. Input: C=CC(=O)NC[C@H](NC(=O)OC(C)(C)C)C(=O)N1C[C@H](Oc2nccc3ccc(Br)cc23)C[C@H]1C(=O)N[C@]1(C(=O)NS(=O)(=O)C2CC2)C[C@H]1C=C
Result :: 10 to 100 nM

Query :: Returns the measured IC50 for the input molecule. Input: C=CC(=O)N[C@H](C)C(=O)N1C[C@H](Oc2nccc3ccc(Br)cc23)C[C@H]1C(=O)N[C@]1(C(=O)NS(=O)(=O)C2CC2)C[C@H]1C=C
Result :: 10 to 100 nM

Query :: Returns the measured IC50 for the input molecule. Input: C=C[C@@H]1C[C@]1(NC(=O)[C@@H]1C[C@@H](Oc2nccc3cc(OC)ccc23)CN1C(=O)[C@H](CCC(=O)C#CC(C)(C)C)NC(=O)OC(C)(C)C)C(=O)NS(=O)(=O)C1CC1
Result :: < 10 nM

Query :: Returns the measured IC50 for the input molecule. Input: C=CC(=O)NC[C@H](NC(=O)CCCC(=O)NCCCOCCOCCOCCCNC(=O)CCCC[C@@H]1SC[C@@H]2NC(=O)N[C@@H]21)C(=O)N1C[C@H](Oc2nccc3cc(OC)ccc23)C[C@H]1C(=O)N[C@]1(C(=O)NS(=O)(=O)C2CC2)C[C@H]1C=C
Result :: 10 to 100 nM

Query :: Returns the measured IC50 for the input molecule. Input: C=CC(=O)N[C@H](C(=O)N1C[C@H](Oc2nccc3cc(OC)ccc23)C[C@H]1C(=O)N[C@]1(C(=O)NS(=O)(=O)C2CC2)C[C@H]1C=C)C(C)(C)O
Result :: 10 to 100 nM
